Source of measurements: patent US20210054097A1

Listed next: entries and their corresponding ELISA signal relative to background.
# targetSystem: T1, FX activation peptide 12-mer YDAADLDPTENP (human)
# T1 peptide: YDAADLDPTENP-biotin
# testDetails: peptide ELISA
Ends that are not written are not given here.
Number only, please.

Before answering, review these 2 worked examples.
binder	ELISA signal relative to background
Nb 701D07 (VHH, monovalent Nanobody; not shown: C-terminal FLAG3 and HIS6 tag) VHH: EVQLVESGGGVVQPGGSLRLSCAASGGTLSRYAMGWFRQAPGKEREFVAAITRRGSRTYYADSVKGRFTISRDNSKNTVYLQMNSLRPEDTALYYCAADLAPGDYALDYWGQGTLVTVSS	0.75
Nb 729C08 (VHH, monovalent Nanobody; also called Nb 729008; not shown: C-terminal FLAG3 and HIS6 tag) VHH: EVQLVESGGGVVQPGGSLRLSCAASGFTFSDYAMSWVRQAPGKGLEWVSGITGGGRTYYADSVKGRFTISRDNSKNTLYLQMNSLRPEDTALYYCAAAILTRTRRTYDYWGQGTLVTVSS	1.09

Query: Can you look up the measured ELISA signal relative to background of Nb 501A02 (VHH, monovalent control Nanobody; also called control Nanobody; not shown: C-terminal FLAG3 and HIS6 tag) VHH: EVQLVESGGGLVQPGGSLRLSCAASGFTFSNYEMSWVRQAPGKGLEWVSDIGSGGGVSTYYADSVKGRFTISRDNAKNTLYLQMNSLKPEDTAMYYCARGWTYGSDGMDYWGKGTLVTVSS for me?
Response: 0.71

Query: Can you look up the measured ELISA signal relative to background of Nb 729A04 (VHH, monovalent Nanobody; not shown: C-terminal FLAG3 and HIS6 tag) VHH: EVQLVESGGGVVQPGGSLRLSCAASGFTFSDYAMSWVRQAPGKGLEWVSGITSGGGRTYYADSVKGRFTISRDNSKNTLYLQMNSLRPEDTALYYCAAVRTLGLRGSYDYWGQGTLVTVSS for me?
Response: 1.06
